Taken from the supplement of paper PMC10567573.

The entries below come with measured protein stability index values attached.
B1: KLHL13 (parent)
chain: TGEFLKLPFERLAFVLSSNSLKHC

Variants of: B1
methodDescription: protein stability index of a GFP-peptide fusion (GPS, HEK-293T) (PSI 1-6); higher = more stable;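 also: lentivirally expressed fusions sorted by FACS into six bins by GFP to DsRed ratio, PSI derived from sequencing read proportions per bin multiplied by bin number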
recordedConditions: c terminus: a fixed tail appended
quantityMeasured: protein stability index

[
  {
    "variantDesignation": "F9Y",
    "quantityMeasured": "protein stability index",
    "recordedMeasurement": 2.7
  },
  {
    "variantDesignation": "N19L",
    "quantityMeasured": "protein stability index",
    "recordedMeasurement": 3.66
  },
  {
    "variantDesignation": "E3Y",
    "quantityMeasured": "protein stability index",
    "recordedMeasurement": 3.14
  },
  {
    "variantDesignation": "L16C",
    "quantityMeasured": "protein stability index",
    "recordedMeasurement": 1.39
  },
  {
    "variantDesignation": "L16K",
    "quantityMeasured": "protein stability index",
    "recordedMeasurement": 2.65
  },
  {
    "variantDesignation": "L7W",
    "quantityMeasured": "protein stability index",
    "recordedMeasurement": 4.29
  },
  {
    "variantDesignation": "C24R",
    "quantityMeasured": "protein stability index",
    "recordedMeasurement": 2.4
  },
  {
    "variantDesignation": "C24G",
    "quantityMeasured": "protein stability index",
    "recordedMeasurement": 1.9
  },
  {
    "variantDesignation": "L21K",
    "quantityMeasured": "protein stability index",
    "recordedMeasurement": 1.26
  },
  {
    "variantDesignation": "L21Q",
    "quantityMeasured": "protein stability index",
    "recordedMeasurement": 1.91
  },
  {
    "variantDesignation": "K6A",
    "quantityMeasured": "protein stability index",
    "recordedMeasurement": 3.83
  },
  {
    "variantDesignation": "L5E",
    "quantityMeasured": "protein stability index",
    "recordedMeasurement": 1.72
  },
  {
    "variantDesignation": "L16S",
    "quantityMeasured": "protein stability index",
    "recordedMeasurement": 2.68
  },
  {
    "variantDesignation": "K22W",
    "quantityMeasured": "protein stability index",
    "recordedMeasurement": 3.33
  },
  {
    "variantDesignation": "C24Y",
    "quantityMeasured": "protein stability index",
    "recordedMeasurement": 3.19
  },
  {
    "variantDesignation": "S17Y",
    "quantityMeasured": "protein stability index",
    "recordedMeasurement": 2.46
  },
  {
    "variantDesignation": "S20G",
    "quantityMeasured": "protein stability index",
    "recordedMeasurement": 2.59
  },
  {
    "variantDesignation": "E10W",
    "quantityMeasured": "protein stability index",
    "recordedMeasurement": 3.59
  },
  {
    "variantDesignation": "L12V",
    "quantityMeasured": "protein stability index",
    "recordedMeasurement": 1.44
  },
  {
    "variantDesignation": "T1E",
    "quantityMeasured": "protein stability index",
    "recordedMeasurement": 2.1
  },
  {
    "variantDesignation": "F4R",
    "quantityMeasured": "protein stability index",
    "recordedMeasurement": 1.13
  },
  {
    "variantDesignation": "C24T",
    "quantityMeasured": "protein stability index",
    "recordedMeasurement": 2.1
  },
  {
    "variantDesignation": "R11G",
    "quantityMeasured": "protein stability index",
    "recordedMeasurement": 2.54
  },
  {
    "variantDesignation": "L21M",
    "quantityMeasured": "protein stability index",
    "recordedMeasurement": 3.88
  },
  {
    "variantDesignation": "S20I",
    "quantityMeasured": "protein stability index",
    "recordedMeasurement": 2.7
  },
  {
    "variantDesignation": "E3T",
    "quantityMeasured": "protein stability index",
    "recordedMeasurement": 1
  },
  {
    "variantDesignation": "F9D",
    "quantityMeasured": "protein stability index",
    "recordedMeasurement": 2.04
  },
  {
    "variantDesignation": "F4P",
    "quantityMeasured": "protein stability index",
    "recordedMeasurement": 1.62
  },
  {
    "variantDesignation": "F9N",
    "quantityMeasured": "protein stability index",
    "recordedMeasurement": 1.8
  },
  {
    "variantDesignation": "L16V",
    "quantityMeasured": "protein stability index",
    "recordedMeasurement": 3.18
  },
  {
    "variantDesignation": "L21C",
    "quantityMeasured": "protein stability index",
    "recordedMeasurement": 3.31
  },
  {
    "variantDesignation": "R11D",
    "quantityMeasured": "protein stability index",
    "recordedMeasurement": 2.08
  },
  {
    "variantDesignation": "N19C",
    "quantityMeasured": "protein stability index",
    "recordedMeasurement": 4.21
  },
  {
    "variantDesignation": "L5D",
    "quantityMeasured": "protein stability index",
    "recordedMeasurement": 2.48
  },
  {
    "variantDesignation": "G2F",
    "quantityMeasured": "protein stability index",
    "recordedMeasurement": 3.56
  },
  {
    "variantDesignation": "L5N",
    "quantityMeasured": "protein stability index",
    "recordedMeasurement": 1.52
  },
  {
    "variantDesignation": "S18Q",
    "quantityMeasured": "protein stability index",
    "recordedMeasurement": 1.61
  },
  {
    "variantDesignation": "F9Q",
    "quantityMeasured": "protein stability index",
    "recordedMeasurement": 2.6
  },
  {
    "variantDesignation": "E10L",
    "quantityMeasured": "protein stability index",
    "recordedMeasurement": 2.88
  },
  {
    "variantDesignation": "K22P",
    "quantityMeasured": "protein stability index",
    "recordedMeasurement": 3.24
  },
  {
    "variantDesignation": "V15C",
    "quantityMeasured": "protein stability index",
    "recordedMeasurement": 2.21
  },
  {
    "variantDesignation": "P8N",
    "quantityMeasured": "protein stability index",
    "recordedMeasurement": 2.66
  },
  {
    "variantDesignation": "K22N",
    "quantityMeasured": "protein stability index",
    "recordedMeasurement": 4.57
  },
  {
    "variantDesignation": "T1H",
    "quantityMeasured": "protein stability index",
    "recordedMeasurement": 3.25
  },
  {
    "variantDesignation": "V15L",
    "quantityMeasured": "protein stability index",
    "recordedMeasurement": 3.05
  },
  {
    "variantDesignation": "A13N",
    "quantityMeasured": "protein stability index",
    "recordedMeasurement": 1.93
  },
  {
    "variantDesignation": "L21P",
    "quantityMeasured": "protein stability index",
    "recordedMeasurement": 2.39
  },
  {
    "variantDesignation": "K6S",
    "quantityMeasured": "protein stability index",
    "recordedMeasurement": 3.28
  },
  {
    "variantDesignation": "S18V",
    "quantityMeasured": "protein stability index",
    "recordedMeasurement": 4.13
  },
  {
    "variantDesignation": "E10R",
    "quantityMeasured": "protein stability index",
    "recordedMeasurement": 4.24
  },
  {
    "variantDesignation": "K22V",
    "quantityMeasured": "protein stability index",
    "recordedMeasurement": 3.78
  },
  {
    "variantDesignation": "L12S",
    "quantityMeasured": "protein stability index",
    "recordedMeasurement": 1.92
  },
  {
    "variantDesignation": "L21Y",
    "quantityMeasured": "protein stability index",
    "recordedMeasurement": 2.33
  },
  {
    "variantDesignation": "H23R",
    "quantityMeasured": "protein stability index",
    "recordedMeasurement": 1.99
  },
  {
    "variantDesignation": "C24N",
    "quantityMeasured": "protein stability index",
    "recordedMeasurement": 2.94
  },
  {
    "variantDesignation": "F4I",
    "quantityMeasured": "protein stability index",
    "recordedMeasurement": 1.31
  },
  {
    "variantDesignation": "L16E",
    "quantityMeasured": "protein stability index",
    "recordedMeasurement": 2.42
  },
  {
    "variantDesignation": "K6P",
    "quantityMeasured": "protein stability index",
    "recordedMeasurement": 2.01
  },
  {
    "variantDesignation": "S20C",
    "quantityMeasured": "protein stability index",
    "recordedMeasurement": 3.52
  },
  {
    "variantDesignation": "F14A",
    "quantityMeasured": "protein stability index",
    "recordedMeasurement": 1.42
  },
  {
    "variantDesignation": "F9I",
    "quantityMeasured": "protein stability index",
    "recordedMeasurement": 3.04
  },
  {
    "variantDesignation": "L5A",
    "quantityMeasured": "protein stability index",
    "recordedMeasurement": 1.6
  },
  {
    "variantDesignation": "F9E",
    "quantityMeasured": "protein stability index",
    "recordedMeasurement": 2.22
  },
  {
    "variantDesignation": "E10C",
    "quantityMeasured": "protein stability index",
    "recordedMeasurement": 2.48
  },
  {
    "variantDesignation": "E10N",
    "quantityMeasured": "protein stability index",
    "recordedMeasurement": 1.99
  },
  {
    "variantDesignation": "E3A",
    "quantityMeasured": "protein stability index",
    "recordedMeasurement": 2.21
  },
  {
    "variantDesignation": "S17C",
    "quantityMeasured": "protein stability index",
    "recordedMeasurement": 5.02
  },
  {
    "variantDesignation": "L16I",
    "quantityMeasured": "protein stability index",
    "recordedMeasurement": 2.89
  },
  {
    "variantDesignation": "L5Y",
    "quantityMeasured": "protein stability index",
    "recordedMeasurement": 1.8
  },
  {
    "variantDesignation": "A13G",
    "quantityMeasured": "protein stability index",
    "recordedMeasurement": 1.6
  },
  {
    "variantDesignation": "A13C",
    "quantityMeasured": "protein stability index",
    "recordedMeasurement": 2.41
  },
  {
    "variantDesignation": "N19R",
    "quantityMeasured": "protein stability index",
    "recordedMeasurement": 2.56
  },
  {
    "variantDesignation": "L16W",
    "quantityMeasured": "protein stability index",
    "recordedMeasurement": 2.23
  },
  {
    "variantDesignation": "F4N",
    "quantityMeasured": "protein stability index",
    "recordedMeasurement": 1.48
  },
  {
    "variantDesignation": "F14P",
    "quantityMeasured": "protein stability index",
    "recordedMeasurement": 2.69
  },
  {
    "variantDesignation": "L12Y",
    "quantityMeasured": "protein stability index",
    "recordedMeasurement": 1.76
  },
  {
    "variantDesignation": "L16Y",
    "quantityMeasured": "protein stability index",
    "recordedMeasurement": 1.93
  },
  {
    "variantDesignation": "S20M",
    "quantityMeasured": "protein stability index",
    "recordedMeasurement": 3.42
  },
  {
    "variantDesignation": "G2N",
    "quantityMeasured": "protein stability index",
    "recordedMeasurement": 2.52
  },
  {
    "variantDesignation": "F14S",
    "quantityMeasured": "protein stability index",
    "recordedMeasurement": 2.21
  },
  {
    "variantDesignation": "L21S",
    "quantityMeasured": "protein stability index",
    "recordedMeasurement": 1.44
  }
]
